PROTOCOL SUMMARY: Stat Signaling Pathway (AID 446);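 further: ME-180 cervical cancer cells given 40 pM IL-6 alongside compound; SIE-controlled beta-lactamase reporter measured as 460/530 nm FRET emission ratio; on the % scale 0 is the no-effect control and ±100 the full control effect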
MEASUREMENT PARAMETERS: ME-180 (cervical carcinoma) SIE beta-lactamase reporter, IL-6 stimulated, 5 h; at 7.69 µM (top of the series) unless noted
Inconclusive results are not listed. Active and inactive are the calls of the source. The call rests on the fitted dose curve; in most records, active means well fitted curve in either direction with a large enough effect (not every such curve was filed as active); inconclusive means small, poorly fitted or top-dose-only effect, or another doubt; inactive means flat fitted curve, though single readings scatter.
Quick list: activity, negative = inhibition per entry.

Completed entries (count: 8):
O=P(O)(O)c1ccccc1 (tested in a mixture with another compound) :: -0.661% (inactive)
COc1ccc(C[C@@H]2C(=O)N[C@H](C)C(=O)N(C)[C@@H]3C(=O)N(C)[C@@H](Cc4ccc(O)c(c4)Oc4ccc(cc4)[C@H]3O)C(=O)N[C@@H](C)C(=O)N[C@H](C)C(=O)N2C)cc1 :: -105% (active)
O=[As](O)(O)c1ccc2nc3cc([As](=O)(O)O)ccc3nc2c1 :: -4.42% (inactive)
C[C@H](Br)CN(C[C@H](C)Br)c1ccc2c(c1)Cc1ccccc1-2 :: -7.03% (inactive)
c1nc(N2CC2)c2cnn([C@@H]3CCCCO3)c2n1 :: -5.16% (inactive)
Cc1ccc(S(=O)ON2CCC(C(=O)O)(c3ccccc3)CC2)cc1 (stereo not drawn) :: 8.69% (inactive)
NCCP(=O)(O)O :: 10.6% (inactive)
C[C@@H]1Cc2cc3c(cc2C(c2ccc(N)cc2)=NN1)OCO3 :: 13.7% [at 38 µM] (inactive)

Then there is this compound:
Which activity, negative = inhibition is reported for this compound? "COc1ccc2c(c1O)-c1cccc3c1[C@H](C2)N(C)CC3"
28.1% [at 38 µM] (inactive)

====

PROTOCOL SUMMARY: Cell Viability - Jurkat (AID 426);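 further: potency means the concentration at half of the fitted maximal effect; cells exposed to compound for 40 hours at 37 °C before ATP read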
MEASUREMENT PARAMETERS: qHTS
Results filed as inconclusive are left out. Calls of active or inactive are those of the source.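 How the source made its calls: active means dose-dependent loss of cell ATP signal giving a full or clear fitted curve, ranked by lower potency value; inconclusive means weak partial curve or response only at the top dose; inactive means no loss of viability signal.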
Use one of these outcomes when replying: class 1 for active, class 0 for inactive

Record lookup: outcome of this test for "C[N+](=O)[O-]" ?
class 0

Record lookup: outcome of this test for "CC(C)[C@]12CC(=O)[C@H](C)[C@H]1C2" ?
class 0

Record lookup: outcome of this test for "C=COC(C)=O" ?
class 0

Record lookup: outcome of this test for "Cc1ccc2c(C)cccc2c1" ?
class 0

Record lookup: outcome of this test for "O=[N+]([O-])c1cccc(O)c1" ?
class 0

Record lookup: outcome of this test for "Oc1c(Cl)c(Cl)cc(Cl)c1Cl" ?
class 1

Record lookup: outcome of this test for "CCCCC#N" ?
class 0

Record lookup: outcome of this test for "COc1c(C(C)(C)C)cc([N+](=O)[O-])c(C)c1[N+](=O)[O-]" ?
class 0

Record lookup: outcome of this test for "[N-]=[N+]=[N-]" ?
class 0

Record lookup: outcome of this test for "CCCCCOC(=O)c1ccccc1C(=O)OCCCCC" ?
class 0

Record lookup: outcome of this test for "CC(C)(Cl)Cl" ?
class 0

====

SYSTEM TESTED: Cytochrome P450 2C19 (Homo sapiens) (UniProt P33261)
Sequence (P33261 whole entry, looked up): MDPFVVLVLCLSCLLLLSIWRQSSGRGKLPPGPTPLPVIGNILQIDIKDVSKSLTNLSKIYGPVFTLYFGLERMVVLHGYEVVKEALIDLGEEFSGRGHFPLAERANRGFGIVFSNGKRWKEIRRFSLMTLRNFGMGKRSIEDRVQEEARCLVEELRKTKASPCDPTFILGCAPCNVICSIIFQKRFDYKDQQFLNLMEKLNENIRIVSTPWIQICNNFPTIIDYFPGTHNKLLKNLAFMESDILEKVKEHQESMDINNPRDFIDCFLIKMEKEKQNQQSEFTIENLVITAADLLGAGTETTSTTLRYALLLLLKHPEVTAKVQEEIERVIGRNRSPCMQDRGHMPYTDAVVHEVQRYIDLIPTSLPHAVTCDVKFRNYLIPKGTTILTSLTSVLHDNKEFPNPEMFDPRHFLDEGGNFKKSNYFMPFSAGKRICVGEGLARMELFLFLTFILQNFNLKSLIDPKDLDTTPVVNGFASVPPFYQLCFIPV
PROTOCOL SUMMARY: qHTS Assay for Inhibitors and Substrates of Cytochrome P450 2C19 (AID 899); further: nearly all actives have a fitted effect of over 60% in size
MEASUREMENT PARAMETERS: recombinant CYP2C19, luciferin-H EGE luminescence; series mostly up to 11.4 µM
Results filed as inconclusive are left out. Activity calls are given as the source filed them. Calls come from the whole dose curve; as a rule, active = well fitted inhibition curve with a large enough effect; inconclusive = small, poorly fitted or top-dose-only effect; inactive = no such curve, though single readings can be large or run the other way.
Use one of these outcomes when replying: active, inactive

Worked cases, answers included:
CCn1cnc2c(Nc3cccc(Cl)c3)nc(N[C@@H]3CCCC[C@H]3N)nc21 :: inactive
C[N+]1([O-])[C@H]2CC[C@H]1CC(OC(=O)[C@@H](CO)c1ccccc1)C2 (some centres undefined) :: inactive
Oc1ccc(CCNCc2cc3c(cc2Br)OCO3)cc1 :: active
O=C(O)C(=O)Cc1ccc2c(c1)OCO2 :: inactive
COc1ccc(C(=O)O[C@H]2CC[C@@]3(C)[C@H]4CC[C@H]5[C@]3(C[C@]3(O)[C@H]6CN7C[C@H](C)CC[C@H]7[C@](C)(O)[C@]6(O)[C@H](O)C[C@]53O)O[C@]24O)cc1OC :: inactive

Record lookup: outcome of this test for "O=C(O)c1cc[c]([Hg][S]c2ncnc3nc[nH]c23)cc1" ?
active

Record lookup: outcome of this test for "FC(F)(F)c1nc2ccc(SSc3ccc4nc(C(F)(F)F)[nH]c4c3)cc2[nH]1" ?
active

Record lookup: outcome of this test for "CC(C)[C@@]1(NC(=O)[C@@H]2C=C3c4cccc5[nH]cc(c45)C[C@@H]3N(C)C2)O[C@]2(O)[C@H]3CCCN3C(=O)[C@H](Cc3ccccc3)N2C1=O" ?
inactive

Record lookup: outcome of this test for "S=P(C1CCCCC1)(C1CCCCC1)[C@H](c1cccnc1)N1CCCC1" ?
active

====

Quick list: activity change, negative = inhibition per entry.
PROTOCOL SUMMARY: NFAT Signaling Pathway (AID 444);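 further: carbachol stimulus at about its EC50 of 1 µM final; on the % scale 0 is the no-effect control and ±100 the full control effect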
MEASUREMENT PARAMETERS: Jurkat NFAT-bla M1, carbachol, beta-lactamase ratio, 5 h; at 7.69 µM (top of the series) unless noted
Inconclusive results are not listed. Activity calls are given as the source filed them. Calls come from the whole dose curve; as a rule, active = well fitted curve in either direction with a large enough effect (not every such curve was filed as active); inconclusive = small, poorly fitted or top-dose-only effect, or another doubt; inactive = flat fitted curve, though single readings scatter.

Completed entries (count: 5):
CCn1cnc2c(Nc3cccc(Cl)c3)nc(N[C@@H]3CCCC[C@H]3N)nc21 :: -119% [at 38 µM] (active)
C[C@@H]1[C@@H](C)N1C[C@H](O)Cn1ccnc1[N+](=O)[O-] (some centres undefined) :: 5.22% (inactive)
C[C@@]12Cc3cnc(-c4ccccc4)nc3C[C@@H]1CC[C@@H]1[C@H]3CC[C@@](C)(O)[C@]3(C)CC[C@@H]12 :: -13.1% (inactive)
COc1cc2c(cc1OC)[C@@]13CCN4CC5=CCO[C@H](CC(=O)O)[C@@H]([C@H]1N2)[C@H]5C[C@H]43 :: 9.02% (inactive)
C=C(C)c1ccccc1 (tested in a mixture with another compound) :: -21.5% (inactive)

Which activity change, negative = inhibition is reported for this compound? "C[C@@]12CC[C@H](O[C@@H]3O[C@H](CO)[C@@H](O)[C@H](O)[C@@H]3O)C[C@@H]1CC[C@H]1[C@H]2CC[C@@]2(C)[C@@H](C3=CCOC3=O)CC[C@]12O"
2.85% (inactive)

Which activity change, negative = inhibition is reported for this compound? "NC[C@@H](Cc1ccccc1)P(=O)(O)O"
4.85% (inactive)

Which activity change, negative = inhibition is reported for this compound? "[N-]=[N+]=NCC(=O)c1c[nH]c(=O)[nH]c1=O"
5.05% (inactive)

Which activity change, negative = inhibition is reported for this compound? "CC1=NN(c2ccccc2)C(=O)[C@@H]1N=Nc1ccc([As](=O)(O)O)c(O)c1"
12.3% (inactive)

====

PROTOCOL SUMMARY: Cell Viability - LYMP2-011 (AID 969);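 further: cells exposed to compound for 24 hours; 0% = DMSO only and full inhibition = 92 µM tetraoctylammonium bromide; nearly all actives have a fitted effect of over 60% in size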
MEASUREMENT PARAMETERS: LYMP2-011 lymphoblastoid cells viability; series mostly up to 92.2 µM
Results filed as inconclusive are left out. Active and inactive are the calls of the source. Calls come from the whole dose curve; as a rule, active = well fitted cell-killing curve with a large enough effect; inconclusive = small, poorly fitted or top-dose-only effect; inactive = flat fitted curve, though single readings scatter.
Use one of these outcomes when replying: Yes for active, No for inactive

CCOC(=O)C1OC1(C)c1ccccc1 (centres undefined) :: No
BrCC(Br)C1CCC(Br)C(Br)C1 (centres undefined) :: No
COc1ccc(C=O)cc1 :: No
O=P(OCCCl)(OCCCl)OCCCl :: No
N#CCCCCC#N :: No
CCC/C=N/O :: No
CC(C)(C)c1ccccc1O :: No
ClC(Cl)Br :: No
Clc1ccc(C(Cl)(Cl)Cl)cc1Cl :: No
CC(C)(C)C(O)(CCc1ccc(Cl)cc1)Cn1cncn1 (centres undefined) :: No

Record lookup: outcome of this test for OCC(Cl)CCl (centres undefined) ?
No

Record lookup: outcome of this test for "Nc1c(Br)cc([N+](=O)[O-])cc1[N+](=O)[O-]" ?
No

Record lookup: outcome of this test for "Cc1ccc(N=C=O)cc1N=C=O" ?
No

Record lookup: outcome of this test for "c1ccc(N=NNc2ccccc2)cc1" ?
No

Record lookup: outcome of this test for "COC(=O)c1ccccc1N" ?
No

Record lookup: outcome of this test for "C=CC#N" ?
No

====

PROTOCOL SUMMARY: Cell Viability - SK-N-SH (AID 435);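 further: potency means the concentration at half of the fitted maximal effect; compound exposure lasted 40 h at 37 °C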
MEASUREMENT PARAMETERS: SK-N-SH neuroblastoma cell viability qHTS
Records with an inconclusive call do not appear. Calls of active or inactive are those of the source. The call rests on the fitted dose curve.
Use one of these outcomes when replying: active, inactive

Record lookup: outcome of this test for "N#C/C=C/C#N" ?
active

Record lookup: outcome of this test for "CC(=O)CCC(C)=O" ?
inactive

Record lookup: outcome of this test for "Cc1ccc(N)cc1C" ?
inactive

Record lookup: outcome of this test for "OCCOCCO" ?
inactive

Record lookup: outcome of this test for "COc1c(C(C)(C)C)cc([N+](=O)[O-])c(C)c1[N+](=O)[O-]" ?
inactive

Record lookup: outcome of this test for "O=[N+]([O-])c1cccc(O)c1" ?
inactive

Record lookup: outcome of this test for C(CCOCC1CO1)COCC1CO1 (centres undefined) ?
inactive

Record lookup: outcome of this test for "CC(C)[N+](=O)[O-]" ?
inactive

Record lookup: outcome of this test for "CC[N+](=O)[O-]" ?
inactive
